system tested: cloned human GLP-1 receptor (Homo sapiens, UniProt P43220)
Construct: expressed in transfected cells; host or cells: CHO or HEK-293 cells
Sequence (P43220 24-463): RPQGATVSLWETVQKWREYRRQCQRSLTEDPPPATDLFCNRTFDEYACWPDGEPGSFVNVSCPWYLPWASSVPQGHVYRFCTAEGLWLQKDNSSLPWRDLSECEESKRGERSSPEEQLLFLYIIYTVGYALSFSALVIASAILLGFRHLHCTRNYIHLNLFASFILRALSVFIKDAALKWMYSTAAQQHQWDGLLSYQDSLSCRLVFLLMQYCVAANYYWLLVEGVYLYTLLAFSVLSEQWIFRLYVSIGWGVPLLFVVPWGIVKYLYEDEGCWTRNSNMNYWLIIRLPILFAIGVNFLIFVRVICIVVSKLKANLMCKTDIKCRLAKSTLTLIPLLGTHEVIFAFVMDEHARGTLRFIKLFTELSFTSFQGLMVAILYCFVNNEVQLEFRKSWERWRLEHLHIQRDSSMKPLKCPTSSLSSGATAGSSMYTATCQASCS
protocol details: Functional cell-based assay: cAMP functional assay
experimental setup: 0.5 h; percentage relative to maximal GLP-1-induced cAMP accumulation; na = not active in the assay; read-out: % activation
# Emax annotations
observed property: Emax (%)

- N#Cc1ccc(-c2ccc(C[C@H](NC(=O)[C@@H]3Cc4cc5c(cc4CN3C(=O)OCC3CC3)OC(c3ccc(OCc4ccc(Cl)c(Cl)c4)cc3)C(=O)N5)C(=O)O)cc2)cc1 (some centres unmarked) [Example 18]: 74.7
- CC[C@@H](c1ccccc1)N1Cc2cc3c(cc2C[C@H]1C(=O)N[C@@H](Cc1ccc(-c2ccc(C#N)cc2)cc1)C(=O)O)N(C)C(=O)[C@@H](c1ccc(OCc2ccc(Cl)c(Cl)c2)cc1)O3 [Example 86]: 58
- CC[C@@H](c1ccccc1)N1Cc2cc3c(cc2C[C@H]1C(=O)N[C@@H](Cc1ccc(-c2ccc(C#N)cc2)cc1)C(=O)O)N(C)C(=O)[C@H](c1ccc(OCc2ccc(Cl)c(Cl)c2)cc1)O3 [Example 87]: 82
- CC[C@@H](c1ccccc1)N1Cc2cc3c(cc2C[C@H]1C(=O)N[C@@H](Cc1ccc(-c2ccc(Cl)cc2)cc1)C(=O)O)N(C)C(=O)[C@@H](c1ccc(OCc2ccc(Cl)c(Cl)c2)cc1)O3 [Example 90]: 43
- CN1C(=O)C(c2ccc(OCc3ccc(Cl)c(Cl)c3)cc2)Oc2cc3c(cc21)C[C@@H](C(=O)N[C@@H](Cc1ccc(-c2ccc(C#N)cc2)cc1)C(=O)O)N(C1CCCC1)C3 (some centres unmarked) [Example 74]: 19

* * *

system tested: cloned human GLP-1 receptor (Homo sapiens, UniProt P43220)
Construct: expressed in transfected cells; host or cells: CHO or HEK-293 cells
protocol details: Functional cell-based assay: cAMP functional assay
experimental setup: 0.5 h; percentage relative to maximal GLP-1-induced cAMP accumulation; na = not active in the assay; read-out: % activation
observed property: Emax

- N#Cc1ccc(-c2ccc(C[C@H](NC(=O)[C@@H]3Cc4cc5c(cc4CN3C(=O)c3ccccc3)OC(c3ccc(OCc4c(Cl)cccc4Cl)cc3)C(=O)N5)C(=O)O)cc2)cc1 (stereo partly drawn) [Example 57]: 20%
- N#Cc1ccc(-c2ccc(C[C@H](NC(=O)[C@@H]3Cc4cc5c(cc4CN3C(=O)c3cccc4ccccc34)OC(c3ccc(OCc4ccc(Cl)c(Cl)c4)cc3)C(=O)N5)C(=O)O)cc2)cc1 (stereo partly drawn) [Example 26]: 14%
- COc1ccc(COc2ccc(C3Oc4cc5c(cc4NC3=O)C[C@@H](C(=O)N[C@@H](Cc3ccc(-c4ccc(C#N)cc4)cc3)C(=O)O)N(C(=O)c3ccccc3)C5)cc2)cc1C(F)(F)F (stereo partly drawn) [Example 62]: 15%

* * *

system tested: cloned human GLP-1 receptor (Homo sapiens, UniProt P43220)
protocol details: Functional cell-based assay: cAMP functional assay
Listed below: EC50 values for each entry.
observed property: EC50 (nM)

- N#Cc1ccc(-c2ccc(C[C@H](NC(=O)[C@@H]3Cc4cc5c(cc4CN3CC#Cc3ncccn3)OC(c3ccc(OCc4ccc(Cl)c(Cl)c4)cc3)C(=O)N5)C(=O)O)cc2)cc1 (stereo partly drawn) [Example 55]: 216
- N#Cc1ccc(-c2ccc(C[C@H](NC(=O)[C@@H]3Cc4cc5c(cc4CN3C(=O)C3CCCCC3)OC(c3ccc(OCc4ccc(Cl)c(Cl)c4)cc3)C(=O)N5)C(=O)O)cc2)cc1 (stereo partly drawn) [Example 25]: 594
- CC(c1ccccc1)N1Cc2cc3c(cc2C[C@H]1C(=O)N[C@@H](Cc1ccc(-c2ccc(C#N)cc2)cc1)C(=O)O)N(C)C(=O)C(c1ccc(OCc2ccc(Cl)c(Cl)c2)cc1)O3 (stereo partly drawn) [Example 80]: 66
